- System: Fer (mouse);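 further: 11-residue human phosphosite peptides and single-mutation variants displayed on the E. coli surface, counted by deep sequencing, each peptide's frequency after selection divided by its frequency in the unselected input library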;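 further: frequency after pTyr selection over input frequency; kinase dosed for 20-30% of maximal phosphorylation in three min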
- assay_summary: phosphorylation enrichment, bacterial display (enrichment ratio); higher = better substrate or ligand; peptides without Tyr show the background
readout_name: phosphorylation enrichment

# sequence_code, observed
data = [
    ("FETVKYFNNER [ABCB7_Y345_YF]", 0.465),
    ("RMDGTYACSFT [FLNB_Y704_YF]", 0.932),
    ("QLAPQYTYAQG [FLNA_Y1761]", 0.448),
    ("TNFSLYLRSLE [MTM1_Y71_R69S_YF]", 0.438),
    ("PPSLSYLSFEG [EXOSC3_Y143_A139P]", 0.451),
    ("SMGHRYIEVFR [HNRNPF_Y82_K87R]", 0.483),
    ("SSFSRYIMMPN [LEF1_Y114_G113R_YF]", 0.484),
    ("LTFDEYRNNSQ [ANXA3_Y216_I219N]", 0.553),
    ("DIDKIYIRTGI [PIK3CA_Y355_V356I]", 0.839),
    ("ISIFFYAKGQP [MPZ_Y82_H81Y_YF]", 0.554),
    ("VGTKRYMASEV [ACVRL1_Y375_P378S]", 0.38),
    ("TGDFGYRAPGF [TNS2_Y668_YF]", 0.44),
    ("LQKPMYEVQWK [KIT_Y553]", 0.83),
    ("RTTKTYFPHFD [HBA1_Y43_P38R]", 0.458),
    ("SDLTDYLMKIL [ACTA1_Y190_R185S]", 0.582),
    ("EYGRRYGFSCQ [CCDC93_Y209_R213C]", 0.526),
    ("HSVLNYGVCVC [JAK2_Y613_L609S]", 0.692),
    ("GRVLGYGAFRK [FLT4_Y853_G857R]", 0.406),
    ("ETLLYYGCRRS [POR_Y564]", 0.638),
    ("KFSNQYKATIG [RAB7A_Y37]", 0.463),
    ("RFLRGYHQDAY [HLA-A_Y137_R138H]", 0.923),
    ("MAFDRYVAICA [OR52J3_Y125_V128I]", 0.562),
    ("VNYQPYRKHKY [TEX37_Y28_D24N]", 0.41),
    ("EILLSYLRTGF [TGM1_Y365_YF]", 0.411),
    ("VYYGSYSCPYG [NKAP_Y104_R106C]", 1.59),
    ("NTVLGYFIGRI [GARS1_Y408]", 0.479),
    ("AVLSLYASGRN [ACTA1_Y145_T150N]", 0.549),
    ("EYQKKYSDADI [CKAP5_Y1860_K1857Q]", 0.597),
    ("DGMADCSDPSF [CDC5L_Y459_Y459C_YF]", 0.627),
    ("DFPMGYPSYLA [TBCK_Y153_I151M]", 0.362),
    ("RKETFYILSCR [GUCY2C_Y681_T682I]", 0.665),
    ("FTRNYYVRAVL [CYBA_Y88]", 0.526),
    ("LLREWYVQDPY [SIX3_Y225_L226V]", 0.566),
    ("VGGRIYIDDAL [PKLR_Y218_G222A]", 0.547),
    ("EVKEAYMGNVL [ACAT1_Y90]", 0.528),
    ("ALLTKYSRSSM [DSCC1_Y374_H376R]", 0.442),
    ("DAVKHYMQFRK [CNGA2_Y395]", 0.366),
    ("FRQNGYIPGSN [PCDHGA1_Y895_V894G_YF]", 0.377),
    ("VPLLEYFRDIF [CDAN1_Y712_YF]", 0.584),
    ("RLRVVYPWTQR [HBB_Y36_L33R]", 0.335),
    ("GSERRYTREGG [PTPRN2_Y139_S140T]", 0.351),
    ("FTHSDYQFSQR [PKP2_Y166_YF]", 0.594),
    ("LRRREYQRQDY [PRKRIP1_Y90]", 0.504),
    ("SLVGCYNLTFM [HS6ST3_Y323]", 1.29),
    ("DDHFTYSRYPW [LY75_Y888]", 0.642),
    ("PNATLYKMSSI [SERPINA7_Y40]", 0.397),
    ("LFHENYNAGTF [CFI_Y421_I416L_YF]", 0.822),
    ("STDDGCIDLQF [TMEM230_Y29_Y29C]", 0.55),
    ("DAGTDYVGISR [FREM2_Y2061]", 0.459),
]
